Biological target: human HDAC3/SMRT heterodimer (Homo sapiens (Human))
Sequence (O15379 whole entry): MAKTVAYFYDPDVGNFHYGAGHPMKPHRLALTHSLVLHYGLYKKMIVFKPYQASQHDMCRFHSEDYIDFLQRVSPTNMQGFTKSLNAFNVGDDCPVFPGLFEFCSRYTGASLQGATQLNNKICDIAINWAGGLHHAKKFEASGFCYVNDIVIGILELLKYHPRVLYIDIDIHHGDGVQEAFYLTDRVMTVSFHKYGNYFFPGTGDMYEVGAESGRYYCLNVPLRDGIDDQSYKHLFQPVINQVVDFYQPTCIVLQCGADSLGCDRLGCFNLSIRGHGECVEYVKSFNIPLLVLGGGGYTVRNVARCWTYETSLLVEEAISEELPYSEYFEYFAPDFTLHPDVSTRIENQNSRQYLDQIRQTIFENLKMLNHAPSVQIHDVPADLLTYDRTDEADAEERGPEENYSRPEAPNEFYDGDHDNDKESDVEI
Sequence (Q9Y618 1-899 partner): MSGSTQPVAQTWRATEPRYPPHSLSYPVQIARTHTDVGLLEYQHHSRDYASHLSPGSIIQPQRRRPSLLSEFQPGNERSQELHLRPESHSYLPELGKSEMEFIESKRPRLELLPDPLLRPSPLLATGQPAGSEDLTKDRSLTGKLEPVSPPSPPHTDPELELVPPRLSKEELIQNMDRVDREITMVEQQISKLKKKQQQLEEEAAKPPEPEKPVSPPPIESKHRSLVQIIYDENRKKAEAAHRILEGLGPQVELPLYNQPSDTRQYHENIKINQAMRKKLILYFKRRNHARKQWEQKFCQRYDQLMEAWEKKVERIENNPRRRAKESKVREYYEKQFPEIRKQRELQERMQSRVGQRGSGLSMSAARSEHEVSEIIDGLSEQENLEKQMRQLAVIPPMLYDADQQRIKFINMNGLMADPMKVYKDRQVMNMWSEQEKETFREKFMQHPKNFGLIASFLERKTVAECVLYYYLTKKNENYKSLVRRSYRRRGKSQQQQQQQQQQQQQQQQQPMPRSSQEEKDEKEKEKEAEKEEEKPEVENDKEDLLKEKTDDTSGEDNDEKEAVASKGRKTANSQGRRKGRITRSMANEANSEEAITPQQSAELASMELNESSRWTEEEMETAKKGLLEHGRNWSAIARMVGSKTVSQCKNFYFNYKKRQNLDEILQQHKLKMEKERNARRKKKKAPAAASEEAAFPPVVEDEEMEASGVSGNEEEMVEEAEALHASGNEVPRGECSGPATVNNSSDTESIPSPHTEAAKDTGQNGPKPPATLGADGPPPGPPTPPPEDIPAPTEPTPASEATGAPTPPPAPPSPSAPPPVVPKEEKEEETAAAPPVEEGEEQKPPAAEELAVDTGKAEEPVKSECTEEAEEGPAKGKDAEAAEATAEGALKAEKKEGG
Assay: biochemical
Listing of recorded IC50 by entry.
Use nM as the unit, but write only the number.

Use the examples below as a reference point.
Asked: Fill in IC50 for record CC(=O)N[C@@H](CCCCCC(=O)c1ncco1)c1ncc(-c2ccc3nc(C)ccc3c2)[nH]1 [Example 87]
Given back: 1.8

Asked: Quick one: give measured IC50 for CN[C@@H](CCCCCC(=O)c1ncco1)c1ncc(-c2cc3ccc(=O)n(C)c3cc2OC)[nH]1 [Example 76]
Given back: 2.7

Asked: Report IC50 for COc1cc2nc(C)ccc2cc1-c1c[nH]c([C@@H](N)CCCCCC(=O)c2ccon2)n1 [Example 31]
Given back: 1.8

We now examine a further compound.
Asked: Return the recorded IC50 value; entry: COc1cc2nc(C)ccc2cc1-c1cnc([C@H](CCCCCC(=O)c2ncco2)NC(=O)C2CN(C)C2)[nH]1 [Example 99]
Given back: 0.47

* * *

In this section, each of the molecules is paired with its reported IC50.
Target: human HDAC1 (Homo sapiens (Human), UniProt Q13547)
Sequence (Q13547 whole entry): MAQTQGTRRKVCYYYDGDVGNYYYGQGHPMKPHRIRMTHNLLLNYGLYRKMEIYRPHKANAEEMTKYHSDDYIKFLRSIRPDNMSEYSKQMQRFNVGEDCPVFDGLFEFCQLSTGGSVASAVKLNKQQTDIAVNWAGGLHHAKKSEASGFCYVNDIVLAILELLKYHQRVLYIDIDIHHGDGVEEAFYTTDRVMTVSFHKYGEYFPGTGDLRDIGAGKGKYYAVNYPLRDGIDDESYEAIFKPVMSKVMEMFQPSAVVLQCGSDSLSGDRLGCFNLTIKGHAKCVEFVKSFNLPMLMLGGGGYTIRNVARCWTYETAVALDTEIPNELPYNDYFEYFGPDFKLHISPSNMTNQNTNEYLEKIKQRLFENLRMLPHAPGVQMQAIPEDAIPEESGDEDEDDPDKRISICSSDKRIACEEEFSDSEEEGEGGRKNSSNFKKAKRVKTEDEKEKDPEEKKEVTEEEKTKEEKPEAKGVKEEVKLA
Test: biochemical
Quick reminder: number only, in nM, skip the unit.

Example molecules with recorded IC50:
Asked: Report IC50, nothing else, for this molecule: CN1CC(C(=O)N[C@@H](CCCCCC(=O)c2ccon2)c2[nH]c(-c3ccccc3F)nc2Cl)C1
Given back: 0.12

Asked: Hello, please tell me recorded IC50 for this one: O=C1NC(CCCCCC(=O)c2ncco2)(c2nc(-c3ccc(F)cc3)c[nH]2)CO1 (stereo not shown)
Given back: 4.4

Asked: Identify the reported IC50 for the following entry. CCN[C@@H](CCCCCC(=O)c1ncco1)c1ncc(-c2ccc3nc(C)ccc3c2)[nH]1
Given back: 1.6

Asked: Indicate the recorded IC50 value for this molecule: N[C@@H](CCCCCC(=O)c1ncco1)c1[nH]c(-c2ccc(F)cc2)nc1Cl
Given back: 0.66

Further cases:
Asked: Look up and report measured IC50 for this entry: CN(C)CC(=O)N[C@@H](CCCCCC(=O)c1ncco1)c1oc(-c2ccc(F)cc2)nc1C#N
Given back: 4.6

Asked: Answer with the recorded IC50 of COc1cc2nc(C)ccc2cc1-c1cnc([C@@H](N)CCCCCC(=O)c2ncco2)o1 only.
Given back: 1.9

Asked: Give IC50 for the following molecule: CCn1ccc2cc(-c3cnc([C@H](CCCCCC(=O)c4ccon4)NC(=O)CN(C)C)[nH]3)c(OC)cc2c1=O
Given back: 0.26

Asked: Using known records, supply IC50 for COc1ncccc1-c1c[nH]c([C@@H](N)CCCCCC(=O)c2ccon2)n1
Given back: 0.73

Asked: Dear colleague, please send me the reported IC50 for Cc1ccc2cc(-c3cnc([C@H](CCCCCC(=O)c4ncco4)NC(=O)[C@H]4CC45CCN(C)CC5)o3)ccc2n1 when you can.
Given back: 7.5

Asked: Determine its reported IC50: O=C1CC[C@@](CCCCCC(=O)c2ccon2)(c2nc(-c3ccc(-c4ncco4)cc3F)c[nH]2)N1
Given back: 1.8

Asked: Return value of IC50 for input N[C@@H](CCCCCC(=O)c1ccon1)c1nc(Cl)c(-c2ccc(F)cc2)[nH]1 , no commentary.
Given back: 1.8

Asked: Tell me measured IC50 for COc1cc2nc(C)ccc2cc1-c1cnc([C@H](CCCCCC(=O)c2ccon2)NC(=O)C2CN(C)C2)o1 please.
Given back: 0.18

Asked: Report IC50 for COc1nc2ccccc2cc1-c1cnc(CCCCCCC(=O)c2ncco2)[nH]1
Given back: 3.3

Asked: Quote IC50 reported for CC(=O)N[C@@H](CCCCCC(=O)c1ncco1)c1ncc(-c2ccc3nc(C)ccc3c2)[nH]1 please.
Given back: 0.69
